All figures here come from patent US5061794A.

Tested on: P. vulgaris HX-19
assay protocol: in vitro antibacterial activity, agar plate dilution method (MIC)
Format: cell-based
measurement setup: P. vulgaris HX-19; 10^6 CFU/ml
recorded metric: Minimum Inhibitory Concentration (MIC)

So, CC(=O)Oc1ccc(-c2nc(SCC3=C(C(=O)O)N4C(=O)C(NC(=O)C(=NOC(C(=O)O)c5ccccc5)c5csc(N)n5)C4SC3)sc2CC(=O)O)cc1OC(C)=O (single isomer, unassigned) [Example 61 DB] ? Its Minimum Inhibitory Concentration (MIC) was 0.05 µg/mL

So, Nc1nc(C(=NOC(C(=O)O)c2ccccc2)C(=O)NC2C(=O)N3C(C(=O)O)=C(CSc4nc(C(=O)O)c(-c5ccc(O)c(O)c5)s4)CSC23)cs1 (single isomer, unassigned) [Example 51 DA] ? Its Minimum Inhibitory Concentration (MIC) was 0.2 µg/mL

So, CC(=O)Oc1ccc(-c2nc(SCC3=C(C(=O)O)N4C(=O)C(NC(=O)C(=NOC(C(=O)O)c5ccccc5)c5csc(N)n5)C4SC3)sc2CC(=O)O)cc1OC(C)=O (single isomer, unassigned) [Example 61 DA] ? Its Minimum Inhibitory Concentration (MIC) was < 0.006 µg/mL

So, Nc1nc(/C(=N/OC(C(=O)O)c2ccccc2)C(=O)N[C@@H]2C(=O)N3C(C(=O)O)=C(CSc4nnc(-c5ccc(O)c(O)c5)o4)CS[C@H]23)cs1 (single isomer, unassigned) [Example 24 DB] ? Its Minimum Inhibitory Concentration (MIC) was 0.05 µg/mL

So, Nc1nc(C(=NOC(C(=O)O)c2ccccc2)C(=O)NC2C(=O)N3C(C(=O)O)=C(CSc4nc(C(=O)O)c(-c5ccc(O)c(O)c5)s4)CSC23)cs1 (single isomer, unassigned) [Example 51 DB] ? Its Minimum Inhibitory Concentration (MIC) was < 0.006 µg/mL

So, Nc1nc(/C(=N/OC(C(=O)O)c2ccccc2)C(=O)N[C@@H]2C(=O)N3C(C(=O)O)=C(CSc4nnc(-c5ccc(O)c(O)c5)o4)CS[C@H]23)cs1 (single isomer, unassigned) [Example 24 DA] ? Its Minimum Inhibitory Concentration (MIC) was < 0.006 µg/mL

###

Tested on: P. vulgaris No. 33
assay protocol: in vitro antibacterial activity, agar plate dilution method (MIC)
Type: cell-based
measurement setup: Proteus vulgaris, NO.33, 16 h, read-out: Minimum Inhibitory Concentration (MIC), *P. vulgaris No. 33, lactamase-producing strain; 10^6 CFU/ml
recorded metric: log10 MIC (log10 of the value in µg/mL)
Lab note - MIC converted to log10 from values in µg/mL.

So, CCO/N=C(\C(=O)N[C@@H]1C(=O)N2C(C(=O)O)=C(CSc3nnc(-c4ccc(O)c(O)c4)o3)CS[C@H]12)c1csc(N)n1 ? Its log10 MIC was -1.60

So, CC(=O)Oc1ccc(-c2nc(SCC3=C(C(=O)O)N4C(=O)C(NC(=O)C(=NOC(C)(C)C(=O)O)c5csc(N)n5)C4SC3)sc2CC(=O)O)cc1OC(C)=O (centres unmarked) ? Its log10 MIC was -1.30

So, CON=C(C(=O)NC1C(=O)N2C(C(=O)O)=C(CSc3nc(-c4ccc(OC(C)=O)c(OC(C)=O)c4)cs3)CSC12)c1csc(N)n1 (centres unmarked) ? Its log10 MIC was -1.00

So, CO/N=C(\C(=O)N[C@@H]1C(=O)N2C(C(=O)O)=C(CSc3nc(-c4ccc(O)cc4)cs3)CS[C@H]12)c1csc(N)n1 [compound 10, reference compound] ? Its log10 MIC was -0.11

So, CO/N=C(\C(=O)N[C@@H]1C(=O)N2C(C(=O)O)=C(CSc3nc(-c4ccccc4)c(CC(=O)O)s3)CS[C@H]12)c1csc(N)n1 [compound 15, reference compound] ? Its log10 MIC was -0.70

So, Nc1nc(C(=NOCc2ccccc2)C(=O)NC2C(=O)N3C(C(=O)O)=C(CSc4nc(C(=O)O)c(-c5ccc(O)c(O)c5)s4)CSC23)cs1 (centres unmarked) ? Its log10 MIC was -1.60

So, CC(C)(O/N=C(\C(=O)N[C@@H]1C(=O)N2C(C(=O)O)=C(CSc3nnc(-c4ccc(O)cc4)o3)CS[C@H]12)c1csc(N)n1)C(=O)O [compound 4, reference compound] ? Its log10 MIC was -0.70

So, CC(C)(O/N=C(\C(=O)N[C@@H]1C(=O)N2C(C(=O)O)=C(CSc3nnc(-c4ccc(O)cc4)s3)CS[C@H]12)c1csc(N)n1)C(=O)O [compound 8, reference compound] ? Its log10 MIC was -0.70

So, CON=C(C(=O)NC1C(=O)N2C(C(=O)O)=C(CSc3nc(-c4ccc(O)c(O)c4)cs3)CSC12)c1csc(N)n1 (centres unmarked) ? Its log10 MIC was -1.30

So, CC(C)(ON=C(C(=O)NC1C(=O)N2C(C(=O)O)=C(CSc3nc(-c4ccc(O)c(O)c4)c(CC(=O)O)s3)CSC12)c1csc(N)n1)C(=O)O (centres unmarked) ? Its log10 MIC was -1.00

So, CCON=C(C(=O)NC1C(=O)N2C(C(=O)O)=C(CSc3nc(C(=O)O)c(-c4ccc(O)c(O)c4)s3)CSC12)c1csc(N)n1 (centres unmarked) ? Its log10 MIC was -1.60

###

Test system: E. coli CSH(RE45)
assay protocol: microbe, parasite or virus in culture
Type: cell-based
measurement setup: Escherichia coli, 16 h, read-out: Minimum Inhibitory Concentration (MIC), *E. coli CSH(RE45), lactamase-producing strain; 10^6 CFU/ml
In plain terms, low MIC, meaning strictly below 0.8 µg/mL, gives true, and everything else gives false.

Exercise: Quick check: MIC of C#CCON=C(C(=O)NC1C(=O)N2C(C(=O)O)=C(CSc3nc(C(=O)O)c(-c4ccc(O)c(O)c4)s3)CSC12)c1csc(N)n1 (centres unmarked) under 0.8 µg/mL?
Solution: true

Exercise: Quick check: MIC of CC(C)(O/N=C(\C(=O)N[C@@H]1C(=O)N2C(C(=O)O)=C(CSc3ncc(-c4ccc(O)c(O)c4)o3)CS[C@H]12)c1csc(N)n1)C(=O)O under 0.8 µg/mL?
Solution: true

Exercise: Quick check: MIC of CON=C(C(=O)NC1C(=O)N2C(C(=O)O)=C(CSc3nc(-c4ccc(OC(C)=O)c(OC(C)=O)c4)cs3)CSC12)c1csc(N)n1 (centres unmarked) under 0.8 µg/mL?
Solution: true

Exercise: Quick check: MIC of CC(C)ON=C(C(=O)NC1C(=O)N2C(C(=O)O)=C(CSc3nc(-c4ccc(O)c(O)c4)cs3)CSC12)c1csc(N)n1 (centres unmarked) under 0.8 µg/mL?
Solution: true

Exercise: Quick check: MIC of CC(=O)Oc1ccc(-c2nc(SCC3=C(C(=O)O)N4C(=O)C(NC(=O)C(=NOC(C)(C)C(=O)O)c5csc(N)n5)C4SC3)sc2CC(=O)O)cc1OC(C)=O (centres unmarked) under 0.8 µg/mL?
Solution: true

Exercise: Quick check: MIC of CC(C)(O/N=C(\C(=O)N[C@@H]1C(=O)N2C(C(=O)O)=C(CSc3ncc(-c4ccccc4)o3)CS[C@H]12)c1csc(N)n1)C(=O)O [compound 22, reference compound] under 0.8 µg/mL?
Solution: false

Exercise: Quick check: MIC of C#CCO/N=C(\C(=O)N[C@@H]1C(=O)N2C(C(=O)O)=C(CSc3nnc(-c4ccc(O)c(O)c4)s3)CS[C@H]12)c1csc(N)n1 under 0.8 µg/mL?
Solution: true

Exercise: Quick check: MIC of CC(C)(O/N=C(\C(=O)N[C@@H]1C(=O)N2C(C(=O)O)=C(CSc3nnc(-c4ccccc4)s3)CS[C@H]12)c1csc(N)n1)C(=O)O [compound 6, reference compound] under 0.8 µg/mL?
Solution: false

Exercise: Quick check: MIC of CC(C)(O/N=C(\C(=O)N[C@@H]1C(=O)N2C(C(=O)O)=C(CSc3nc(-c4ccccc4)c(CC(=O)O)s3)CS[C@H]12)c1csc(N)n1)C(=O)O [compound 16, reference compound] under 0.8 µg/mL?
Solution: false

Exercise: Quick check: MIC of CC(C)O/N=C(\C(=O)N[C@@H]1C(=O)N2C(C(=O)O)=C(CSc3nnc(-c4ccc(O)c(O)c4)o3)CS[C@H]12)c1csc(N)n1 under 0.8 µg/mL?
Solution: false

Exercise: Quick check: MIC of Nc1nc(/C(=N/Oc2ccccc2)C(=O)N[C@@H]2C(=O)N3C(C(=O)O)=C(CSc4nnc(-c5ccc(O)c(O)c5)o4)CS[C@H]23)cs1 under 0.8 µg/mL?
Solution: true

Exercise: Quick check: MIC of Nc1nc(C(=NOC2(C(=O)O)CC2)C(=O)NC2C(=O)N3C(C(=O)O)=C(CSc4nc(-c5ccc(O)c(O)c5)c(CC(=O)O)s4)CSC23)cs1 (centres unmarked) under 0.8 µg/mL?
Solution: false

Exercise: Quick check: MIC of Nc1nc(/C(=N/OCc2ccccc2)C(=O)N[C@@H]2C(=O)N3C(C(=O)O)=C(CSc4nnc(-c5ccc(O)c(O)c5)s4)CS[C@H]23)cs1 under 0.8 µg/mL?
Solution: false

Exercise: Quick check: MIC of CCON=C(C(=O)N[C@@H]1C(=O)N2C(C(=O)[O-])=C(CSc3nc(-c4ccc(O)c(O)c4)cs3)CS[C@H]12)c1csc(N)n1.[Na+] under 0.8 µg/mL?
Solution: true

Exercise: Quick check: MIC of Nc1nc(/C(=N/OCc2ccccc2CC(=O)O)C(=O)N[C@@H]2C(=O)N3C(C(=O)O)=C(CSc4nnc(-c5ccc(O)c(O)c5)o4)CS[C@H]23)cs1 under 0.8 µg/mL?
Solution: true

Exercise: Quick check: MIC of Nc1nc(/C(=N/OCc2ccccc2)C(=O)N[C@@H]2C(=O)N3C(C(=O)O)=C(CSc4nnc(-c5ccc(O)c(O)c5)o4)CS[C@H]23)cs1 under 0.8 µg/mL?
Solution: false
